Data credit: PubChem BioAssay (NCI)

Catalogue of GI50 readings, one per entry.
System: LOX IMVI melanoma
Test: NCI tumour cell line growth inhibition, 48 h

As a guide, the following entries are already answered.
The recorded GI50 for C/C([O-])=C1\Cc2ccccc2C1=O.C/C([O-])=C1\Cc2ccccc2C1=O.CC[O-].CC[O-].[Ti+4] is 13 µM

The recorded GI50 for CS(=O)(=O)c1ccc(-c2cnc(N)c(C(=O)Nc3ccccc3)n2)cc1 is 4.2 µM

The recorded GI50 for O=C1C=C[C@@]23C[C@@H](Nc4c(O)c5c6c(c42)=NCCC=6C=N5)SC3=C1 is 1.82 µM

The recorded GI50 for Cn1ccnc1C(=O)/C=C/c1ccc(CC(=O)Nc2ccc(S(F)(F)(F)(F)F)cc2)cc1 is 1.19 µM

The recorded GI50 for CC(C)(O)C1CCC(Nc2ccc3ncc(-c4cccc(C(F)(F)F)c4)n3n2)CC1 (configuration not stated) is 1.56 µM

The recorded GI50 for NC(=NC1CCCCCCC1)c1ccc(N2CCN(c3ccc(C(N)=NC4CCCCCCC4)cc3)CC2)cc1 is > 100 µM

More entries:
The recorded GI50 for COc1ccn2c(C(C)=O)cc(C(=O)c3ccc4c(c3)Sc3ccccc3N4)c2c1 is 0.15 µM

The recorded GI50 for CC(C)C[C@H](NC(=O)[C@H]1O[C@@H]1C(=O)O)C(=O)NCCc1ccc(O)cc1 is 74.1 µM

The recorded GI50 for CCN(CCNc1ccc(C)c2sc3cc(Cl)ccc3c(=O)c12)CC(C)O (configuration not stated) is 1.85 µM

The recorded GI50 for CCCCCCCCCCC(O)[C@H]1CCC(C2CC[C@H]([C@H](O)CCCCCCCCCCC(O)CC3=CC(C)OC3=O)O2)O1 (some centres not stated) is 1.18 µM

The recorded GI50 for COc1cc(C(O)c2nc3ccccc3s2)cc(OC)c1OC (configuration not stated) is 50.6 µM

The recorded GI50 for C=CCNCCCN1C(=O)c2ccc3c4c(ccc(c24)C1=O)C(=O)N(CCCNCC=C)C3=O is 0.316 µM

====

Tested on: K-562 leukemia
Experiment: NCI tumour cell line growth inhibition, 48 h
Catalogue of TGI readings, one per entry.

As a guide, the following entries are already answered.
The recorded TGI for C(=C\c1nccs1)/c1cccc(/C=C/c2nccs2)n1 is > 50 µM

The recorded TGI for O=C1NCCCC12CCCNC2=O is > 100 µM

The recorded TGI for OCC(O)C(OC1OC(CO)C(O)C(O)C1O)c1nn(-c2ccccc2)c2nc3cc(Cl)c(Cl)cc3cc12 (configuration not stated) is > 100 µM

The recorded TGI for O=C1/C(=C/c2ccc([N+](=O)[O-])o2)Oc2ccc(Br)cc21 is 4.59 µM

The recorded TGI for OCC1OC(NCCNCCNC2OC(CO)C(O)C(O)C2O)C(O)C(O)C1O (configuration not stated) is > 100 µM

The recorded TGI for O=c1[nH]c(=O)n(COCCO)c2ccc(Br)cc12 is > 100 µM

The record that follows has no TGI shown yet.
The recorded TGI for Nc1ccc2nc3ccc(N)cc3[n+](-c3ccccc3)c2c1 is > 100 µM

====

Catalogue of TGI readings, one per entry.
System: HOP-62 NSCLC
Assay: NCI tumour cell line growth inhibition, 48 h

As a guide, the following entries are already answered.
The recorded TGI for CCO[C@@H]1CCC(S(=O)c2ccc(C)cc2)=CO1 (stereo partly specified) is > 100 µM

The recorded TGI for CSc1nc(-c2ccc(C)cc2)c(C#N)c(=O)[nH]1 is > 100 µM

The recorded TGI for COc1ccc(C(=O)COc2cccc(/C=C3\CSc4ccccc4C3=O)c2)cc1 is 7.6 µM

The recorded TGI for O=c1c2cc(Br)ccc2nc(-c2ccccc2Cl)n1NCC1(O)OCC(O)C(O)C1O (stereo unspecified) is > 100 µM

The recorded TGI for OCC1OC(NCCNCCNC2OC(CO)C(O)C(O)C2O)C(O)C(O)C1O (stereo unspecified) is > 100 µM

More entries:
The recorded TGI for COc1ccc(C(Cc2cc(OC)c(OC)c(OC)c2)C(=O)O)cc1 (stereo unspecified) is > 100 µM

The recorded TGI for Nc1ccc(C(=O)NN2C(=O)C(Cl)C2c2cc(Br)ccc2O)cc1 (stereo unspecified) is > 100 µM

The recorded TGI for NC1=NNC2(C(=O)N1)c1ccccc1-c1ccccc12 is > 10 µM

The recorded TGI for O=C1C=CC(=O)c2c(NCC3CC3)ccc(NCC3CC3)c21 is > 100 µM

The recorded TGI for NC(=O)c1cc([N+](=O)[O-])c(Cl)c([N+](=O)[O-])c1 is 17.8 µM

The recorded TGI for COc1cc2nc(-c3cccs3)nc(N3C(c4ccc(O)cc4)=NNC(=O)c4ccccc43)c2cc1OC is > 100 µM
